Entries and their EC50, TNFa production by LPS-stimulated HMDMs values follow.
biological target: human LILRB2 expressed on cells (human, UniProt Q8N423 22-597); assay: cell-based or functional assay
Sequence (Q8N423 other isoform, or with tags, fused parts or gaps limits assumed): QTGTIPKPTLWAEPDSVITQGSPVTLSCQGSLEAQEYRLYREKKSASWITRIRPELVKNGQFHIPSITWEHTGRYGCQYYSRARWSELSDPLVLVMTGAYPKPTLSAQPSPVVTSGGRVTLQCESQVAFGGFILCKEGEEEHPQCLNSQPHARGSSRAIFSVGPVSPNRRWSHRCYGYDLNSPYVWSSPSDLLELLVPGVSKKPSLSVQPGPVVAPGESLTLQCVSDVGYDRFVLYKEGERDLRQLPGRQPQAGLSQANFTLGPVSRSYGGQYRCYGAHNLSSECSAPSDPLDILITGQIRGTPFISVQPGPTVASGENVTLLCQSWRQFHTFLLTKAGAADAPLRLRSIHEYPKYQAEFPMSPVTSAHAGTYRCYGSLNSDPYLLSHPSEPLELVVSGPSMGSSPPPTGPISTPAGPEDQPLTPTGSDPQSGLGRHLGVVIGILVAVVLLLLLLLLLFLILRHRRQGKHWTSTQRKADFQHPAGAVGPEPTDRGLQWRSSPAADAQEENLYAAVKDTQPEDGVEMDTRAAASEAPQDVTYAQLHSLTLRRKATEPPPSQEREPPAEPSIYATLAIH
Reply with just the number (in pM).

[[record]]
binder = "J-19.h4 (antibody, human IgG4 S228P, kappa, V domains shown, Humanized, human IgG4 backbone) VH: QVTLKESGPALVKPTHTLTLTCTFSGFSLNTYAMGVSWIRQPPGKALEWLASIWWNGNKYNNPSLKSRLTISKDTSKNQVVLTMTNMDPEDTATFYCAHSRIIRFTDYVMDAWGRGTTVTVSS VL: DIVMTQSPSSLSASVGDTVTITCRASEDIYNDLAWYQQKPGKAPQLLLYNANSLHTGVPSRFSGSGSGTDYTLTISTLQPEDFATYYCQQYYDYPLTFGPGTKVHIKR"
reportedresult = 84

[[record]]
binder = "J-19.h2 (antibody, human IgG4 S228P, kappa, V domains shown, Humanized, human IgG4 backbone) VH: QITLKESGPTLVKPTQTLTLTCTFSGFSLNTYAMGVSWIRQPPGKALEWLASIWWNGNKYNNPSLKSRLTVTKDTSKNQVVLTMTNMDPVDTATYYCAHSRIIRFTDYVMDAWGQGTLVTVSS VL: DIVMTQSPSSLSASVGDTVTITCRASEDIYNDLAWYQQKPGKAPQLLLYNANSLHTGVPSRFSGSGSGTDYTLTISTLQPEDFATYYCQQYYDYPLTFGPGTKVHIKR"
reportedresult = 120

[[record]]
binder = "J-19.h1 (antibody, human IgG4 S228P, kappa, V domains shown, Humanized, human IgG4 backbone) VH: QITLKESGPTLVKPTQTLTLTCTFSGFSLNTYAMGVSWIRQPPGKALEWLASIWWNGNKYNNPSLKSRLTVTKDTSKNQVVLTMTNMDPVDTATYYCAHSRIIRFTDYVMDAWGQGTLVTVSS VL: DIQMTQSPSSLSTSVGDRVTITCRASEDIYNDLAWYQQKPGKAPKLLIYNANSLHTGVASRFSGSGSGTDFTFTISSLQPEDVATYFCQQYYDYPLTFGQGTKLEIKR"
reportedresult = 76


Proceed to the following item.
Look up EC50, TNFa production by LPS-stimulated HMDMs for this binder: J-19.h3 (antibody, human IgG4 S228P, kappa, V domains shown, Humanized, human IgG4 backbone) VH: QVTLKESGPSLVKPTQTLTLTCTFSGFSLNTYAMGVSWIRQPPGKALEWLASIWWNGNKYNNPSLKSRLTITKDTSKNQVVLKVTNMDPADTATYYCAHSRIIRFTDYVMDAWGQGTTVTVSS VL: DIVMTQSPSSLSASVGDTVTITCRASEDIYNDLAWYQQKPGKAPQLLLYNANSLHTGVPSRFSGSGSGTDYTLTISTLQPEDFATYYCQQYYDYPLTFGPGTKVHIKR
87
